- ASSAY TARGET: Papain (Carica papaya)
- Sequence (P00784 whole entry): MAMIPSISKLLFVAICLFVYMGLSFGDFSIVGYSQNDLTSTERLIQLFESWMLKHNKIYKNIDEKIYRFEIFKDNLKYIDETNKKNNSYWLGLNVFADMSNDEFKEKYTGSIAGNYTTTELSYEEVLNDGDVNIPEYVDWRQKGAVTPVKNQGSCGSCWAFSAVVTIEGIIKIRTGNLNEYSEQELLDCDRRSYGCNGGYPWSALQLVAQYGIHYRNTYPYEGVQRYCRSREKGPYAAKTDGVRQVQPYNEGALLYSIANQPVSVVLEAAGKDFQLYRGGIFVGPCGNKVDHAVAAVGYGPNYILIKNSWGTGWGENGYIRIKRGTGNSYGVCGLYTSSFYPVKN
- MEASUREMENT NOTES: Pseudo-first order rate constant for inhibition of thiol-dependent papain enzyme
MEASURED QUANTITY: pseudo-first-order inhibition rate constant (min⁻¹)

>  <TEST SMILES>
CN(N=O)c1ccccc1O

>  <ASSAY TARGET>
Papain (Carica papaya)

>  <NUMERIC RESULT>
0.011

$$$$
>  <TEST SMILES>
CN(N=O)c1cccc(O)c1

>  <ASSAY TARGET>
Papain (Carica papaya)

>  <NUMERIC RESULT>
0.036

$$$$
>  <TEST SMILES>
CN(N=O)c1ccc(Cl)cc1

>  <ASSAY TARGET>
Papain (Carica papaya)

>  <NUMERIC RESULT>
0.017

$$$$
>  <TEST SMILES>
CN(N=O)c1ccccc1

>  <ASSAY TARGET>
Papain (Carica papaya)

>  <NUMERIC RESULT>
0.057

$$$$
>  <TEST SMILES>
CN(N=O)c1ccccc1[N+](=O)[O-]

>  <ASSAY TARGET>
Papain (Carica papaya)

>  <NUMERIC RESULT>
0.026

$$$$

Reference for the values: ChEMBL document CHEMBL1150506
